Below are Kd values measured for Vasopressin V2 receptor (Homo sapiens, UniProt P30518).
# output: bare number, implied unit nM

[[record]]
molecule = "O=C(CCCCCNC(=O)c1ccc(-c2c3ccc(=O)cc-3oc3cc(O)ccc23)c(C(=O)O)c1)NCCNC(=O)CCc1ccc(S(=O)(=O)N(CC(=O)N/N=C2\\C(=O)Nc3ccccc32)c2ccc(Cl)cc2)cc1"
test_readout = "Kd"
units = "nM"
value_observed = 135


Next up:
Exercise: Quote Kd with test system Vasopressin V2 receptor (Homo sapiens, UniProt P30518) for CCN1\C(=C/C=C/C=C/C2=[N+](CC)c3cc(S(=O)(=O)[O-])ccc3C2(C)C)C(C)(CCCC(=O)NCCNC(=O)CCc2ccc(S(=O)(=O)N(CC(=O)N/N=C3\C(=O)Nc4ccccc43)c3ccc(Cl)cc3)cc2)c2cc(S(=O)(=O)O)ccc21 (stereo not drawn)
Solution: 30.5

---

# experimental system: Vasopressin V2 receptor (Homo sapiens, UniProt P30518)
# Sequence (P30518 whole entry): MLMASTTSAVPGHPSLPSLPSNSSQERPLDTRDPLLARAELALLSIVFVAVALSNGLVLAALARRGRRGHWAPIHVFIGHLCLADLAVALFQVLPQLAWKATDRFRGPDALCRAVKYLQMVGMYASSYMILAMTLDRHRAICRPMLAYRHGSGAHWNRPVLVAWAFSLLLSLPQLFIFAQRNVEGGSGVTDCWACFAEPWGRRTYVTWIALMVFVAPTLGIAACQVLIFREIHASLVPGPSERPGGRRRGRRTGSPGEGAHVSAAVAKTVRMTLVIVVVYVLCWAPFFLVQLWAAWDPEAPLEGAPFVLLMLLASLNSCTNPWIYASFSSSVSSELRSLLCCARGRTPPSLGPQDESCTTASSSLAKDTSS
test readout: pKd
Answer as the number alone; pKd is minus log10 of concentration in mol/L.

Exercise: Quote pKd with test system Vasopressin V2 receptor (Homo sapiens, UniProt P30518) for CCN1\C(=C/C=C/C=C/C2=[N+](CC)c3cc(S(=O)(=O)[O-])ccc3C2(C)C)C(C)(CCCC(=O)NCCOCCOCCOCCOCc2nnc(N3CC(Oc4ccc(F)cc4Cl)C3)n2-c2ccc(OC)nc2)c2cc(S(=O)(=O)O)ccc21.O=C(O)C(F)(F)F (configuration not stated)
Solution: 6.29
